experiment: Fluorimetry: absorption and emission spectra, Stokes shift, molar absorption coefficient, quantum efficiency; format: physicochemical; parameters: unit not given here; details: phosphate buffer pH 5.5 (0.2 M)
For each record, write down the corresponding λmax abs.
Lab note: jot down the number only; don't add units.

IN: Supply recorded λmax abs for `COc1cc2oc(=O)c(C(=O)O)cc2cc1-n1cc(-c2ccc(-c3ccc(N)cc3)cc2)nn1` here.
OUT: 335

IN: Please supply the value of reported λmax abs for the item `Nc1ccc(-c2ccc(C#Cc3cc4cc(C(=O)O)c(=O)oc4cc3O)cc2)cc1`
OUT: 365

IN: Tell us which λmax abs value is on record for `CCOC(=O)c1cc2cc(C#Cc3ccc(-c4ccc(N)cc4)cc3)c(O)cc2oc1=O`
OUT: 365

IN: Specify λmax abs for `O=C(O)c1cc(C(=O)O)c2cc(-c3ccc(-c4ccccc4)cc3)ccc2n1` and stop.
OUT: 330
